Origin of measurements: the supplement of paper PMC10290057

Test system: HCT116
Assay: efficacy (fitted maximal change in viability relative to DMSO control); higher = less cytotoxic (negative = loss of viability)
Settings: 48 h
Counter-ions that a name gives are not always drawn.
ENDPOINT: efficacy (%)
Express it in %; write the number only.

Some entries whose results are on file:
Cc1cc(F)c(C(=O)Nc2cccc(-c3nncn3C(C)C)n2)cc1-n1cnc(C2CC2)c1: -73.8
NNc1nncc2ccccc12: 28.9
Cc1onc(-c2ccc(F)cc2)c1COc1ccc(C(=O)N2CC[S+](=O)([O-])CC2)cn1: -18.7
COc1ccc(CCN2CCN(CCCc3ccccc3)CC2)cc1OC [Cutamesine hydrochloride]: -28.5
O=C(O)Cc1cccc(OCCCN(Cc2cccc(C(F)(F)F)c2Cl)CC(c2ccccc2)c2ccccc2)c1: -71.2
CC1(C)C(N(O)C(=O)Nc2ccc(Cl)cc2)N(c2ccc(Cl)cc2)C(=O)N1CC(=O)N/N=C/C=C/c1ccc([N+](=O)[O-])o1 (stereo not given): -89.8
CNC(=O)c1ccc(N2C(=S)N(c3ccc(C#N)c(C(F)(F)F)c3)C(=O)C23CCC3)cc1F: -28.5
C[C@]\12CCC(=O)\C=C1[C@@H]3C[C@@H]3[C@@H]4[C@@H]2CC[C@@]5(C)[C@H]4[C@@H]6C[C@@H]6[C@@]57CCC(=O)O7: -38.8

Moving on to the next compound.
[ask] What value of efficacy has been recorded for this entry: CCOC1=CC=CC=C1N\2C(=O)C3=C(C=CC=C3)\N=C2C(C)N4CCN(CC4)C(=O)COC5=CC=C(Cl)C=C5 (stereo not given)
[reply] -70.4

###

Each entry below lists one item and its recorded efficacy value.
Tested on: HCT116
Test: efficacy (fitted maximal change in viability relative to DMSO control); higher = less cytotoxic (negative = loss of viability)
Details: 48 h
Lab book: enter the figure in %, no units written.

Observe how each entry below is paired with its result.
NC1=NC(=C(C#N)C(=N1)N)N[C@@H](C2CC2)\C3=N\C4=C(C(=CC=C4F)Cl)C(=O)N3C5=CC=CN=C5: -71
CN[C@@H]1[C@@H](O)[C@@H](O[C@@H]2[C@@H](O)[C@H](O[C@H]3O[C@H](CN)[C@@H](O)[C@H](O)[C@H]3O)[C@@H](N)C[C@H]2NC(=O)C(O)CN)OC[C@]1(C)O.O=S(=O)(O)O (stereo partly drawn) [Isepamicin sulfate]: -15.7

Now, please, on to the next compound.
[ask] Hi! What's the reported efficacy for CCc1c(O)cc(O)c(C(=O)c2ccc(OCCN3CCOCC3)c(OC)c2)c1CC(=O)N(CCOC)CCOC on HCT116?
[reply] -53.2

###

Tested on: HCT116
Assay: AC50 cell viability (CellTiter-Glo); higher = less potent
Details: 48 h
Structures can show the parent of a compound that is named as a salt.
Below, each of the compounds is paired with its reported AC50 cell viability value.
Report the value in µM with no unit label.

Please review the entries below; each comes with its answer.
O=C(Nc1nc2cccc(-c3ccc(CN4CC[S+](=O)([O-])CC4)cc3)n2n1)C1CC1: 7.42
COC1=C(CN(C)C)C=C(OC)C(=C1)C/2=C/N(C)C(=O)C3=C2C=CN=C3: 14.8
Cc1c(NC(=O)OC[C@@H]2COCCN2)cn2ncnc(Nc3ccc4c(cnn4Cc4cccc(F)c4)c3)c12: 20.9
NC(CSC(c1ccccc1)(c1ccccc1)c1ccccc1)C(=O)O (stereo in doubt): 23.5
O=C(NCCCNc1nc(Nc2cccc(CN3CCOCC3)c2)ncc1C1CC1)C1CCC1: 16.6

[ask] Please give the measured AC50 cell viability for this compound: Cc1nc2c([nH]1)-c1ccccc1N(C(=O)c1ccc(NC(=O)c3ccccc3-c3ccccc3)cc1)CC2 [Conivaptan hydrochloride]
[reply] 20.9

[ask] Look up AC50 cell viability: CC(=O)c1cnc2ccc(-c3cc(Cl)c(O)c(Cl)c3)nc2c1N[C@H]1CC[C@H](CN(C)C)CC1
[reply] 0.0539

[ask] # query: AC50 cell viability of entry CC(=O)NCC(=O)N1[C@@H]2CC[C@H]1c1ccc(Nc3ncc(C(F)(F)F)c(NC4CCC4)n3)cc12
[reply] 1.48

[ask] Consider the compound Cc1c(C(=O)Nc2cccc(C(F)(F)F)c2)cc(-c2ccccc2)n1CCCN1CCOCC1 and give its measured AC50 cell viability.
[reply] 20.9

[ask] # get_value(readout='AC50 cell viability', item= C=C1CC[C@@H]2[C@](C)(CO)[C@H](O)CC[C@@]2(C)[C@@H]1C/C=C1/C(=O)OC[C@H]1O [Andrographolide] )
[reply] 4.68

[ask] What value of AC50 cell viability has been recorded for this entry: N=C(N)NC(=N)NCCc1ccccc1 [Phenformin hydrochloride]
[reply] 13.2

[ask] Which AC50 cell viability value belongs to Cc1c[nH]c2nc(Nc3ccc(N4CCN(C)CC4)c(F)c3)nc(-c3cccc(CC#N)c3)c12 ?
[reply] 0.525

[ask] Dear colleague, I am looking for the recorded AC50 cell viability of the following compound: C=CC(=O)Nc1cccc(Nc2nc(Nc3ccc(N4CCN(C(C)=O)CC4)cc3OC)ncc2C(F)(F)F)c1
[reply] 8.33

[ask] Please report the recorded AC50 cell viability for C[C@H](NC(=O)c1sccc1OCc1ccc(Cl)cc1)c1ccccc1 .
[reply] 16.6

[ask] Returns the measured AC50 cell viability for the input compound. Input: CN1CCN(c2ccc3nc(-c4cc(C(C)(C)C)c(OCCCC(=O)NCCCN=[N+]=[N-])c(C(C)(C)C)c4)[nH]c3c2)CC1
[reply] 8.33

###

System: HCT116
Experiment: efficacy (fitted maximal change in viability relative to DMSO control); higher = less cytotoxic (negative = loss of viability)
Details: 48 h
Label rule, in plain words: efficacy of -80% and up is class 1, under -80% is class 0.

Use the examples below as a reference point.
COC1=CC=C2C(=CC=NC2=C1)OC3=CC=C(NC(=O)\C4=C(C)\N(CC(C)(C)O)N(C4=O)C5=CC=CC=C5)C=C3F: class 1
CNCc1ccc(-c2cc(-c3nc(-c4ccc([S+](=O)([O-])C(C)C)cc4)cnc3N)on2)cc1: class 1

[ask] # check: efficacy of COc1cc(C(N)=O)ccc1NC(=O)[C@@H]1N[C@@H](CC(C)(C)C)[C@@]2(C(=O)Nc3cc(Cl)ccc32)[C@H]1c1cccc(Cl)c1F is greater than or equal to -80%
[reply] class 0

[ask] Does the compound CN1CCN(c2cccc(Nc3nc4c(-c5ccc([S+](C)(=O)[O-])cc5)cccn4n3)c2)CC1 have recorded efficacy that is -80% or more?
[reply] class 0

[ask] Reported efficacy reaches at least -80% for CN1CCN(CCOc2cc(OC3CCOCC3)c3c(Nc4c(Cl)ccc5c4OCO5)ncnc3c2)CC1 ?
[reply] class 0

[ask] hey, is efficacy for this one >= -80%? CC(C)C[C@H](CN)CC(=O)O
[reply] class 1

[ask] Is efficacy at least -80%? Consider Cn1cc(-c2ccc3nnc(C(F)(F)c4ccc5ncccc5c4)n3n2)cn1
[reply] class 1

[ask] Dear colleague, could you confirm whether C[S+]([O-])c1ccc(-c2nc(-c3ccc(F)cc3)c(-c3ccncc3)[nH]2)cc1 (stereo not drawn) has efficacy at or above -80%?
[reply] class 0

###

Test system: HCT116
Assay: AC50 cell viability (CellTiter-Glo); higher = less potent
Conditions: 48 h
Structures can show the parent of a compound that is named as a salt.
AC50 cell viability less than 2000 nM is met; AC50 cell viability greater than or equal to 2000 nM is not met.

Cc1nc(N)sc1-c1ccnc(Nc2ccc(N3CCOCC3)cc2)n1 [CYC-116]: not met
CN[S+]([O-])(=O)NC1=NC=CC(=C1F)CC/2=C(C)/C3=CC=C(OC4=NC=CC=N4)C=C3OC2=O: met
Fc1ccc(-c2csc3ncnc(NCc4ccc5c(c4)OCO5)c23)cc1: not met

[ask] Bench note: check whether O=C1CSC(=O)N1C(CCc1ccncc1)COc1ccc(-c2cccc([N+](=O)[O-])c2)cc1 (configuration not stated) shows AC50 cell viability below 2000 nM
[reply] not met

[ask] Below 2000 nM on AC50 cell viability? Entry CO[C@H]1/C=C\C=C(\C)C(=O)NC2=CC(=O)C(NCCN(C)C)=C(C[C@@H](C)C[C@H](OC)[C@H](O)[C@@H](C)/C=C(/C)[C@@H]1OC(N)=O)C2=O [Alvespimycin hydrochloride]
[reply] met

[ask] Regarding O=C(CCCCCCNC(=O)c1cnc(N(c2ccccc2)c2ccccc2)nc1)NO [ACY-1215] , kindly confirm whether its AC50 cell viability is beneath 2000 nM.
[reply] not met

[ask] Could you please tell me whether AC50 cell viability recorded for CC(=O)c1ccc2c(c1)c1cc(C(C)=O)ccc1n2CCNC(C)C [CBL-0137] is less than 2000 nM?
[reply] met

###

System: HCT116
Experiment: AC50 cell viability (CellTiter-Glo); higher = less potent
Settings: 48 h
Counter-ions that a name gives are not always drawn.
Decision: AC50 cell viability beneath 6 µM gives 1.0; AC50 cell viability meeting or exceeding 6 µM gives 0.0.

COc1cc2c(Oc3ccc4[nH]c(C)cc4c3F)ncnc2cc1OCCCN1CCCC1 [Cediranib]: 0.0

[ask] Bench note: check whether COc1cc2c(Nc3ccc(NC(=O)c4ccccc4)cc3)ncnc2cc1OCCCN1CCOCC1 shows AC50 cell viability below 6 µM
[reply] 0.0

[ask] Here's an entry: CC[C@H](CC#N)OC(=O)N[C@@H](C)c1cccc(NC(=O)Nc2ccc(-c3cnco3)c(OC)c2)c1 [AVN944] . Is its AC50 cell viability below 6 µM?
[reply] 1.0

[ask] Problem: For the compound COc1ccc(CCN(C)CCCC(C#N)(c2ccc(OC)c(OC)c2)C(C)C)cc1OC (configuration not stated) [Verapamil] , is AC50 cell viability under 6 µM?
[reply] 0.0

[ask] Lab note: confirm whether the reported AC50 cell viability for this compound is below 6 µM, equality not counting. compound: COc1cc2c(cc1O)CCN[C@]21CS[C@@H]2c3c(OC(C)=O)c(C)c4c(c3[C@H](COC1=O)N1[C@@H]2[C@H]2c3c(cc(C)c(OC)c3O)C[C@@H]([C@@H]1O)N2C)OCO4 [Trabectedin]
[reply] 1.0

[ask] API: query returns whether the compound falls strictly under 6 µM in AC50 cell viability. Query: CN(C)C(=O)C(CCN1CCC(O)(c2ccc(Cl)cc2)CC1)(c1ccccc1)c1ccccc1 [Loperamide hydrochloride]
[reply] 0.0
